# credit: ChEMBL document CHEMBL1143184

Measured Ki (UniProtKB P08912)
Sequence (P08912 whole entry): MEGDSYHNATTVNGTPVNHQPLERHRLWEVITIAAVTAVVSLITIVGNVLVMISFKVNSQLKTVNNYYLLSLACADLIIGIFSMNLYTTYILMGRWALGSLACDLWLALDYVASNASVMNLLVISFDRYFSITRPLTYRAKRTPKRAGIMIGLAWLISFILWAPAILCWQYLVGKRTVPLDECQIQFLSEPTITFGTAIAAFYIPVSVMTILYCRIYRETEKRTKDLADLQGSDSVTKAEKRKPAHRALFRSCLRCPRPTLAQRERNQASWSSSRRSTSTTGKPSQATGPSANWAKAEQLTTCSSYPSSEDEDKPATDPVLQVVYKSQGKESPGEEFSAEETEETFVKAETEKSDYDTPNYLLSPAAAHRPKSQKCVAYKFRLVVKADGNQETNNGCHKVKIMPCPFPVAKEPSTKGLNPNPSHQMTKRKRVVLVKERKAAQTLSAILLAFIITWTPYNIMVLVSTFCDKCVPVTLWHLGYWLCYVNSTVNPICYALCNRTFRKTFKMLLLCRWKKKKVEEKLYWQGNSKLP
State the value, then name its unit.

Req: Consider the compound `CC(C)N(CC[C@H](c1ccccc1)c1cc(CCNC(=O)CCCCCNC(=O)COc2ccc(/C=C/C3=[N+]4C(=Cc5ccc(-c6cccs6)n5[B-]4(F)F)C=C3)cc2)ccc1O)C(C)C` and give its measured Ki.
Resp: 17.5 nM

Req: Consider the compound `Cc1ccc(O)c([C@H](CCN(C(C)C)C(C)C)c2ccccc2)c1` and give its measured Ki.
Resp: 2.2 nM

Req: Consider the compound `CCN(CC)c1ccc(/C=C/c2cc[n+](CCC[N+](CC)(CC)CC)cc2)cc1` and give its measured Ki.
Resp: 228 nM
